Consider the following compounds; for each one, report its IC50.
- Experimental System: DR7 (DRB1*0701) (Homo sapiens, UniProt P01903+P01911, A100R/A102G/A103Q/D57E/D86V/E43K/F76Y/K127E/L162R/M171V/P40G/Q125H/Q99D/R33Q/R42Y/R54Q/S133A/S66F/T210M/V115G/Y107V/Y59L/Y89S)
- Measurement Notes: biochemical
- Format: binding
Give the quantity in µM, number only.

Exercise: Requested field: IC50. Item: CC[C@H](C)[C@H](NC(=O)[C@H](Cc1c[nH]c2ccccc12)NC(=O)[C@H](CCC(=O)O)NC(=O)[C@@H]1CCCN1)C(=O)N[C@@H](CCC(=O)O)C(=O)N[C@@H](CCCNC(=N)N)C(=O)N[C@@H](CCC(N)=O)C(=O)N[C@H](C(=O)N[C@H](C(=O)N[C@@H](CC(C)C)C(=O)N[C@@H](CCC(N)=O)C(=O)N[C@@H](Cc1c[nH]cn1)C(=O)N[C@@H](CO)C(=O)N[C@@H](Cc1ccccc1)C(=O)N[C@@H](CC(N)=O)C(=O)O)C(C)C)[C@@H](C)O [Peptide 89.0049]
Key: 2.87

Exercise: IC50 lookup needed for CC(C)C[C@H](NC(=O)[C@H](CCC(N)=O)NC(=O)[C@H](CCCCN)NC(=O)[C@@H](NC(=O)[C@H](CC(C)C)NC(=O)[C@H](CCC(N)=O)NC(=O)[C@@H](NC(=O)[C@H](C)NC(=O)[C@H](CO)NC(=O)[C@@H](NC(=O)[C@@H](NC(=O)[C@H](CC(=O)O)NC(=O)[C@H](CC(=O)O)NC(=O)[C@@H](N)CO)[C@@H](C)O)C(C)C)[C@@H](C)O)C(C)C)C(=O)N[C@@H](CCC(N)=O)C(=O)O [Peptide 1601.13] , thanks.
Key: 7.67

Exercise: Data request, read-out IC50, for CC[C@H](C)[C@H](NC(=O)[C@H](C)NC(=O)[C@@H](NC(=O)[C@@H](NC(=O)[C@H](CC(N)=O)NC(=O)[C@H](CC(C)C)NC(=O)[C@H](Cc1ccccc1)NC(=O)[C@H](CCCCN)NC(=O)[C@@H](NC(=O)[C@H](CCCNC(=N)N)NC(=O)[C@H](CCC(N)=O)NC(=O)[C@H](CCCCN)NC(=O)[C@@H](N)CCC(=O)O)[C@@H](C)O)[C@@H](C)O)C(C)C)C(=O)N1CCC[C@H]1C(=O)N[C@@H](CC(=O)O)C(=O)O [Peptide 1601.19]
Key: 0.123

Exercise: # query: IC50 of entry CC[C@H](C)[C@H](NC(=O)CNC(=O)[C@H](CCC(=O)O)NC(=O)[C@H](Cc1c[nH]cn1)NC(=O)[C@@H](NC(=O)[C@H](Cc1ccc(O)cc1)NC(=O)[C@H](Cc1ccc(O)cc1)NC(=O)[C@H](CC(C)C)NC(=O)CN)C(C)C)C(=O)N[C@@H](CCCNC(=N)N)C(=O)N[C@H](C(=O)N[C@@H](Cc1ccc(O)cc1)C(=O)N[C@@H](Cc1ccccc1)C(=O)N[C@H](C(=O)N[C@@H](CCC(N)=O)C(=O)O)C(C)C)[C@@H](C)O [Peptide 90.0171]
Key: 5.58
